# Test system: aldehyde oxidase (the present enzyme)
# Assay type: biochemical, Pseudomonas sp No. 6233
# study_conditions: concentration 1 mM; none = 100
quantity_name: Relative activity (%)
Just the number please, in %, no unit attached.

Please review the following examples before continuing.
• [Cl-].[Cl-].[Co+2] [CoCl2] = 104
• c1cnc2c(c1)ccc1cccnc12 [O--Phenanthroline] = 103
• c1ccc(-c2ccccn2)nc1 [α, α'-Dipyridyl] = 85
• [Cl-].[Cl-].[Sr+2] [SrCl2] = 94
• O=S(=O)([O-])[O-].[Mg+2] [MgSO4] = 97
• NO [Hydroxylamine] = 110

Reported Relative activity (%) for [Cl][Mn][Cl] [MnCl2] was 106

Reported Relative activity (%) for [Cl-].[Cl-].[Zn+2] [ZnCl2] was 103

----------
# Tested on: aldehyde oxidase (the present enzyme)
# assay_comment: Substrate specificity of the present aldehyde oxidase
# Format: biochemical, Pseudomonas sp No. 6233
# study_conditions: present enzyme
quantity_name: action of the present enzyme upon the substrate

Please review the following examples before continuing.
• CCCCCC=O = acts upon
• CC(C)=CCCC(C)=CC=O = acts upon
• C[n+]1cccc(C(N)=O)c1 [N'--Methylnicotinamide] = does not act upon
• C=O = acts upon

`CC=O` tested on aldehyde oxidase (the present enzyme) gave action of the present enzyme upon the substrate: acts upon

`CCCCC=O` tested on aldehyde oxidase (the present enzyme) gave action of the present enzyme upon the substrate: acts upon

`CCO` tested on aldehyde oxidase (the present enzyme) gave action of the present enzyme upon the substrate: does not act upon

`CCCCCCC=O` tested on aldehyde oxidase (the present enzyme) gave action of the present enzyme upon the substrate: acts upon

`C/C=C/C=O` tested on aldehyde oxidase (the present enzyme) gave action of the present enzyme upon the substrate: acts upon

`c1ccc2ncccc2c1` tested on aldehyde oxidase (the present enzyme) gave action of the present enzyme upon the substrate: does not act upon

`CO` tested on aldehyde oxidase (the present enzyme) gave action of the present enzyme upon the substrate: does not act upon

`CCC=O` tested on aldehyde oxidase (the present enzyme) gave action of the present enzyme upon the substrate: acts upon

`O=C[C@@H](O)CO` tested on aldehyde oxidase (the present enzyme) gave action of the present enzyme upon the substrate: acts upon

`O=C[C@H](O)CO` tested on aldehyde oxidase (the present enzyme) gave action of the present enzyme upon the substrate: acts upon

`O=Cc1ccccc1` tested on aldehyde oxidase (the present enzyme) gave action of the present enzyme upon the substrate: acts upon

----------
Measured Relative activity (%) values are reported for all entries that follow.
# Test system: aldehyde oxidase (the present enzyme)
# Assay type: biochemical, Pseudomonas sp No. 6233
# study_conditions: concentration 0.1 mM; none = 100
Just the number please, in %, no unit attached.

Please review the following examples before continuing.
- [Ba+2].[Cl-].[Cl-]: 87
- O=S(=O)([O-])[O-].[Cu+2]: 20

Reported Relative activity (%) for [Cl][Hg][Cl] [HgCl2, mercuric chloride] was 0

Reported Relative activity (%) for `O=S(=O)([O-])[O-].[Fe+2]` was 100

Reported Relative activity (%) for `O=S(=O)(O)c1cc[c]([Hg][Cl])cc1` was 0

----------
# Test system: aldehyde oxidase (the present enzyme)
# assay_comment: Substrate specificity of the present aldehyde oxidase
# Type: biochemical, Pseudomonas sp No. 6233
# study_conditions: purified enzyme of Example 1; formaldehyde = 100%
quantity_name: Relative activity (substrate specificity) (%)
Just the number please, in %, no unit attached.

Please review the following examples before continuing.
- C=O: 100
- CCC=O: 285
- O=C[C@@H](O)CO: 23
- c1ncc2[nH]cnc2n1: 0
- CCO: 0

// moving on: another record for Relative activity (substrate specificity)
Reported Relative activity (substrate specificity) for `CC=O` was 266

----------
# Test system: aldehyde oxidase (the present enzyme)
# assay_comment: Substrate specificity of the present aldehyde oxidase
# Assay type: biochemical, Pseudomonas sp No. 6233
# study_conditions: purified enzyme of Example 1; formaldehyde = 100%
Measured Relative activity (substrate specificity) values are reported for all entries that follow.
Just the number please, in %, no unit attached.

Please review the following examples before continuing.
- CCCCCC=O: 390
- C=C[C@H]1C[N@@]2CC[C@H]1C[C@H]2[C@H](O)c1ccnc2ccc(OC)cc12: 0
- C/C=C/C=O: 260

Reported Relative activity (substrate specificity) for `CO` was 0

Reported Relative activity (substrate specificity) for `O=Cc1ccccc1` was 93

Reported Relative activity (substrate specificity) for `c1ccc2ncccc2c1` was 0

Reported Relative activity (substrate specificity) for `CC(C)=CCCC(C)=CC=O` was 291

Reported Relative activity (substrate specificity) for `CCCCC=O` was 367

Reported Relative activity (substrate specificity) for C[n+]1cccc(C(N)=O)c1 [N'--Methylnicotinamide] was 0

----------
# Test system: aldehyde oxidase (the present enzyme)
# assay_comment: Substrate specificity of the present aldehyde oxidase
# Type: biochemical, Pseudomonas sp No. 6233
# study_conditions: purified enzyme of Example 1; formaldehyde = 100%
Measured Relative activity (substrate specificity) values are reported for all entries that follow.
Just the number please, in %, no unit attached.

Please review the following examples before continuing.
- O=C[C@H](O)CO: 270
- O=c1[nH]cnc2nc[nH]c12: 0

// moving on: another record for Relative activity (substrate specificity)
Reported Relative activity (substrate specificity) for `CCCCCCC=O` was 387
